# condition_description: in 2-propoxyethanol, 308.15 K
measurement_label: solubility (mole fraction)

# solubility (mole fraction) (compound: O=P(O)(O)c1ccccc1 ) is 0.318

###

# condition_description: in isopropanol, 323.15 K
measurement_label: solubility (mole fraction)
Hey, just send me the number, nothing else.

# solubility (mole fraction) (compound: O=P(O)(O)c1ccccc1 ) is 0.361
